meta.source: patent US10829483B2

Target: URAT-1 (uric acid transporter) (Homo sapiens (Human), UniProt Q96S37)
Sequence (Q96S37 whole entry): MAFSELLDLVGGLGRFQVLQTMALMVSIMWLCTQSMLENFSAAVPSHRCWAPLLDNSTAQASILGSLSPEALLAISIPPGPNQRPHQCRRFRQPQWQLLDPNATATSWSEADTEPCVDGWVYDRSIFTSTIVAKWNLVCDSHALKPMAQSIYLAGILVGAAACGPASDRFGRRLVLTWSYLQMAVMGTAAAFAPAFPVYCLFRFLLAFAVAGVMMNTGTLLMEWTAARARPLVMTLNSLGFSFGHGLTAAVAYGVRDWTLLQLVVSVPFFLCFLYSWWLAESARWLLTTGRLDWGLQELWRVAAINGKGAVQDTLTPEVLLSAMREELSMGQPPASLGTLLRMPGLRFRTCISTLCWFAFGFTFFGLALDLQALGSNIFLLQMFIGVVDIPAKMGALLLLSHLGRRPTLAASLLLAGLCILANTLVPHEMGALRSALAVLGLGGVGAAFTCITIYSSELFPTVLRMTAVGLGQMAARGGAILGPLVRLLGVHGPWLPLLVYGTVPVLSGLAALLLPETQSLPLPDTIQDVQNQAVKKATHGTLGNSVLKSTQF
Assay: Inhibition of 14C uric acid transport by HEK293 cell line stably transfected with the URAT-1 gene
Details: URAT-1 (HEK293) cells; 14C-labelled uric acid 50 um, 10 min at 37° C.; read-out: IC50 (inhibition against URAT-1)
pIC50: −log10 of the molar value.
ENDPOINT_LABEL: pIC50

Some solved entries appear below for comparison.
Prompt: I have this molecule here, `COc1ccc(-c2sc(-n3c(Br)nnc3SCC(=O)O)c3c2CCCC3)cc1` , and I need its recorded pIC50.
Completion: 4.70 to 5.70

Prompt: Field request: pIC50 | item: `CC1(C)CCc2c(C3CC3)sc(-n3c(Br)nnc3SC(C)(C)C(=O)O)c2C1`
Completion: > 5.70

Prompt: Entry under review: `O=C(O)CSc1nncn1-c1sc(-c2ccc(Cl)cc2)c2c1CCC2` . Reported pIC50?
Completion: < 4.70

Prompt: Quick one: pIC50 of `Cc1cc(-n2cnnc2SCC(=O)O)sc1-c1ccc(C(C)(C)C)cc1` ?
Completion: < 4.70

Prompt: Would you kindly share the measured pIC50 for `Cc1cc(-n2cnnc2SCC(=O)O)sc1-c1ccc(C(F)(F)F)cc1` ?
Completion: < 4.70

Prompt: Name the reported pIC50 value associated with the molecule `O=C(O)CSc1nnc(Br)n1-c1sc(-c2ccc(F)c(F)c2)c2c1CCCC2`
Completion: 4.70 to 5.70

New cases:
Prompt: Could you share which pIC50 value was measured for `CN(C)c1ccc(-c2sc(-n3cnnc3SC(C)(C)C(=O)O)c3c2CCCC3)cc1Br` ?
Completion: 4.70 to 5.70

Prompt: Recorded pIC50 for CC(Sc1nnc(Br)n1-c1sc(C2CC2)c2c1CCC2)C(=O)O (stereo not shown) , please?
Completion: > 5.70

Prompt: // lookup pIC50 for `CC(C)(Sc1nnc(Br)n1-c1sc(C2CC2)c2c1CCC2)C(=O)O`
Completion: > 5.70

Prompt: Can you look up the measured pIC50 of `Cc1cc(-n2c(Br)nnc2SC2(C(=O)O)CCC2)sc1C1CC1` for me?
Completion: > 5.70

Prompt: What value of pIC50 has been recorded for this entry: CC(Sc1nnc(Br)n1-c1cc(Cl)c(C2CC2)s1)C(=O)O (stereo not shown)
Completion: 4.70 to 5.70

Prompt: Requested read-out: pIC50. Entry: `O=C(O)CSc1nncn1-c1sc(-c2ccc(C(F)(F)F)cc2)c2c1CCC2`
Completion: < 4.70

Prompt: May I ask what pIC50 has been recorded for `Cc1cc(-n2c(Br)nnc2SCC(=O)O)sc1-c1ccc(C(C)(C)C)cc1` ?
Completion: < 4.70

Prompt: Give the measured pIC50 of `O=C(O)CSc1nncn1-c1sc(-c2cc(F)cc(F)c2)c2c1CCCC2` .
Completion: < 4.70

Prompt: Look up pIC50: `Cn1cc(-c2sc(-n3c(Br)nnc3SCC(=O)O)c3c2CCC3)cn1`
Completion: < 4.70

Prompt: Recorded pIC50 for `O=C(O)CSc1nnc(Br)n1-c1sc(-c2ccccc2)c2c1CCCC2` , please?
Completion: 4.70 to 5.70

Prompt: Fill in the blank: the reported pIC50 of Cc1cc(-n2c(Br)nnc2SC(C)C(=O)O)sc1-c1ccc(Cl)cc1 (stereo not shown) is ____.
Completion: 4.70 to 5.70

Prompt: Reported pIC50, molecule `Cc1cc(-n2c(Br)nnc2SC2(C(=O)O)CCCC2)sc1C1CC1` : ____
Completion: > 5.70

Prompt: Recorded pIC50 of `COc1ccc(-c2sc(-n3c(Br)nnc3SCC(=O)O)c3c2CCC3)cc1` , please.
Completion: < 4.70

Prompt: Fill in the blank: the reported pIC50 of `CC(C)(C)c1ccc(-c2sc(-n3cnnc3SCC(=O)O)c3c2CCC3)cc1` is ____.
Completion: < 4.70

Prompt: So what does the record say about pIC50 for COc1ccc(-c2sc(-n3c(Br)nnc3SC(C)C(=O)O)c3c2CCCC3)cc1Br (stereo not shown) ?
Completion: > 5.70

Prompt: # get_value(readout='pIC50', item= `CCOC(=O)CSc1nncn1-c1cc(Br)c(C2CC2)s1` )
Completion: < 4.70

====

Target: URAT-1 (uric acid transporter) (Homo sapiens (Human))
Assay: Inhibition of 14C uric acid transport by HEK293 cell line stably transfected with the URAT-1 gene
Conditions: URAT-1 (HEK293) cells; 14C-labelled uric acid 50 um, 10 min at 37° C.; read-out: IC50 (inhibition against URAT-1)
Listing of entries alongside the reported IC50.

See these solved cases before continuing.
Prompt: Any idea what its IC50 is? The compound is `CNc1c(Br)cc(-c2sc(-n3cnnc3SC(C)(C)C(=O)O)c3c2CCCC3)cc1Br`
Completion: 2 to 20 µM

Prompt: Look up IC50 for this compound: COc1ccc(-c2sc(-n3c(Br)nnc3SC(C)C(=O)O)c3c2CCCC3)cc1 (centres unmarked)
Completion: 2 to 20 µM

Prompt: Which IC50 value is on record for `O=C(O)C1(Sc2nnc(Br)n2-c2cc(Cl)c(C3CC3)s2)CCCC1` ?
Completion: < 2 µM

Prompt: Would you mind telling me what IC50 value was observed for `O=C(O)CSc1nncn1-c1sc(-c2ccc(F)c(F)c2)c2c1CCCC2` ?
Completion: > 20 µM

Field: next compound
Prompt: I'd like to know its IC50. The compound in question is `CCOC(=O)C(C)(C)Sc1nnc(Br)n1-c1sc(C(=O)Nc2ccc(F)c(F)c2)c2c1CCCC2`
Completion: > 20 µM

====

Measured IC50 by item
Molecular target: URAT-1 (uric acid transporter) (Homo sapiens (Human), UniProt Q96S37)
Assay: Inhibition of 14C uric acid transport by HEK293 cell line stably transfected with the URAT-1 gene
Conditions: URAT-1 (HEK293) cells; 14C-labelled uric acid 50 um, 10 min at 37° C.; read-out: IC50 (inhibition against URAT-1)

Check out these entries, answers already filled in.
Prompt: Using the record for CC1(C)Cc2c(C3CC3)sc(-n3c(Br)nnc3SC3(C(=O)O)CCC3)c2C1 [WX066] , report its IC50.
Completion: < 2 µM

Prompt: Give the measured IC50 of CC(Sc1nnc(Br)n1-c1sc(-c2ccc(S(C)(=O)=O)cc2)c2c1CCCC2)C(=O)O (centres unmarked) [WX015] .
Completion: > 20 µM

Prompt: Item under review: Cc1cc(-n2cnnc2SCC(=O)O)sc1-c1ccc(F)cc1 [WX095] . Reported IC50?
Completion: > 20 µM

Prompt: # lookup: IC50 of COC(=O)C(C)Sc1nncn1-c1cc(Br)c(-c2ccccc2)s1 (centres unmarked) [WX075]
Completion: 2 to 20 µM

Okay, next one:
Prompt: What measured IC50 goes with CC(C)(Sc1nnc(Br)n1-c1sc(-c2ccc(Cl)c(Cl)c2)c2c1CCCC2)C(=O)O [WX011] ?
Completion: < 2 µM

====

Below is a list of entries, each paired with its recorded pIC50 value.
Target: URAT-1 (uric acid transporter) (Homo sapiens (Human))
Test: Inhibition of 14C uric acid transport by HEK293 cell line stably transfected with the URAT-1 gene
Settings: URAT-1 (HEK293) cells; 14C-labelled uric acid 50 um, 10 min at 37° C.; read-out: IC50 (inhibition against URAT-1)
pIC50: −log10 of the molar value.

Prompt: Which value of pIC50 has been reported for COc1ccc(-c2sc(-n3cnnc3SCC(=O)O)cc2C)cc1 [WX096] in the records?
Completion: < 4.70

Prompt: Consider the molecule shown here: O=C(O)CSc1nnc(Br)n1-c1sc(C2CC2)c2c1CCC2 [WX058] What is its recorded pIC50?
Completion: < 4.70

Prompt: I would be grateful if you could share the reported pIC50 for O=C(O)CSc1nnc(Br)n1-c1sc(-c2ccc(Cl)c(Cl)c2)c2c1CCC2 [WX041] .
Completion: < 4.70

Prompt: Recorded pIC50 of C[C@H](Sc1nnc(Br)n1-c1sc(C2CC2)c2c1CCCC2)C(=O)O [WX032] , please.
Completion: > 5.70

Prompt: Quick check: pIC50 of O=C(O)CSc1nnc(Br)n1-c1sc(-c2ccccc2)c2c1OCCO2 [WX099] ?
Completion: < 4.70

====

Biological target: URAT-1 (uric acid transporter) (Homo sapiens (Human))
Experiment: Inhibition of 14C uric acid transport by HEK293 cell line stably transfected with the URAT-1 gene
Settings: URAT-1 (HEK293) cells; 14C-labelled uric acid 50 um, 10 min at 37° C.; read-out: IC50 (inhibition against URAT-1)
Procedure: Determination of the IC50 value of the inhibitory activity of the compound against uric acid reabsorption by the HEK293 cell line stably transfected with the URAT-1 (uric acid transporter) gene. […] ^14C-labelled uric acid was diluted and added into plate, and the final concentration is 50 um. […] The signal was read by liquid scintillation counter Tri-Carb. e) data analysis URAT-1 inhibition by the treatment of the compounds was analyzed by calculating the percentage of inhibition. […]
pIC50: −log10 of the molar value.
ENDPOINT_LABEL: pIC50

Prompt: What value of measured pIC50 is listed for Cc1cc(-n2c(Br)nnc2SCC(=O)O)sc1-c1ccccc1 [WX079] ?
Completion: 4.70 to 5.70

Prompt: GET /values?readout=pIC50&item= O=C(O)C(Sc1nnc(Br)n1-c1sc(C2CC2)c2c1CCC2)c1ccccc1 (stereo not shown) [WX064]
Completion: 4.70 to 5.70

Prompt: Recorded pIC50 of CC(C)C(Sc1nnc(Br)n1-c1sc(C2CC2)c2c1CCCC2)C(=O)O (stereo not shown) [WX028] , please.
Completion: > 5.70

Prompt: I'd like to know its pIC50. The molecule in question is CCOC(=O)C(C)(C)Sc1nncn1-c1cc(Br)c(C2CC2)s1 [WX076]
Completion: 4.70 to 5.70

Prompt: Would you kindly share the measured pIC50 for O=C(O)CSc1nnc(Br)n1-c1sc(-c2ccccc2)c2c1CCC2 [WX037] ?
Completion: < 4.70
